Value source: PubChem BioAssay (EPA / NIEHS)

# Read-out: ATP-citrate lyase (ACLY), ACLY (gene 47)
# Experiment summary: LTEA_HepaRG_ACLY: Life Technologies and Expression Analysis (LTEA) Assay for ATP-citrate lyase (ACLY) using HepaRG (AID 2283466)
# Condition set: mRNA level, 48 h; actives raise or lower the signal
Active and inactive are the calls of the source. How the source made its calls: active means hit-call score of the fitted dose curve at least 0.9, where 1 is the maximum; inactive means score below 0.9.
Return exactly one item of active, inactive

> print(dat)
                                   compound  assigned.class
1  CN1C(=O)N(c2ccccc2Br)Cc2cnc(Nc3ccc4c(c3)OCC(CO)O4)nc21 (configuration not stated)          active
2                   CCCCCCCCCCCC[N+](C)(C)C          active
3            Clc1cc(Cl)c2c(c1)N=C1CCCCCN1C2        inactive
4    O=C(O)Cc1cc(I)c(Oc2ccc(O)c(I)c2)c(I)c1        inactive
5  CCOC(=O)O[C@H](C)OC(=O)c1ccc2c(c1)cc(C(=O)NC1CCN(C(C)C)CC1)n2Cc1cc(-c2ccc(Cl)s2)on1        inactive
6  CC(C)(c1cc(Br)c(O)c(Br)c1)c1cc(Br)c(O)c(Br)c1        inactive

Called result for O=C(O)c1ccccc1C(=O)OCc1ccccc1 inactive

Tell me the recorded outcome of this test for Cc1ccc2oc(CN(Cc3ccccc3)C(=O)Nc3c(F)cc(F)cc3F)c(-c3ccc(Cl)cc3)c2c1 . inactive

# outcome recorded in this test, key = CC(C)(C)c1csc(-c2cc3cc(OCc4ccccc4CC(=O)O)ccc3o2)n1 active

Dear all, I need the recorded test outcome for CCCOC(=O)c1cc(O)c(O)c(O)c1 , thank you. inactive

Hey, what did the test say about O=C(Nc1ccc(Cl)cc1)Nc1ccc(Cl)c(Cl)c1 ? active

Assay result, entry O=C(O)c1ccccc1-n1cc(C(=O)O)c(=O)c2cc(Nc3c(F)cc(F)cc3Cl)c(Cl)cc21 — outcome? inactive

Query: recorded result category for CCN(CC)C(=O)c1cc(S(=O)(=O)Cc2ccccc2)c(N2CCC(c3ccccc3)CC2)cc1N(CC)CCN(C)C in this test active

----------
# Read-out: Human Leukocyte Antigen - DR isotype (HLADR), HLA-DRA (gene 3122)
# Experiment summary: BSK_CASM3C_HLADR: BioMAP Diversity Plus: CASM3C Assay for Human Leukocyte Antigen - DR isotype (HLADR) Biomarker Activity (AID 2283043);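 further: cell-surface HLA-DR protein level quantified by ELISA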
# Condition set: primary human coronary artery smooth muscle cells; actives raise or lower the signal
Activity calls are given as the source filed them. The calls were made as follows: active = hit-call score of the fitted dose curve at least 0.9, where 1 is the maximum; inactive = score below 0.9.
Mark one answer only. Choices: yes (active), no (inactive)

> print(dat)
                                   molecule  assigned.class
1                 CCCCCCCC[Si](OCC)(OCC)OCC              no
2  CN1C(=O)N(c2ccccc2Br)Cc2cnc(Nc3ccc4c(c3)OCC(CO)O4)nc21 (centres undefined)             yes
3  O=C(O)c1ccccc1-n1cc(C(=O)O)c(=O)c2cc(Nc3c(F)cc(F)cc3Cl)c(Cl)cc21              no
4                     CCCCOC(=O)c1ccc(O)cc1              no
5  COc1ccc2cc(S(=O)(=O)N[C@H](CC(=O)N[C@H](Cc3ccc(CN4[C@H](C)CCC[C@@H]4C)cc3)C(=O)N(C)C(C)C)c3ccc4c(c3)OCO4)ccc2c1             yes
6       CCCCCCCCOc1ccc(C(=O)c2ccccc2)c(O)c1              no

What call does the record list for CC(=O)N1CCN(c2ccc(OC[C@H]3CO[C@](Cn4ccnc4)(c4ccc(Cl)cc4Cl)O3)cc2)CC1 ? no

For Cc1cc2c(cc1C(F)(F)F)N(C(=O)Nc1ccc(Oc3cccnc3C)nc1)CC2 , which call appears in the assay record? yes

What classification did CC(O)CC(C)(C)O (centres undefined) end up with in this test? no
